The origin of these recorded values is paper PMC13586308.

# Kd annotations
Biological target: BRD4 43-463 Y390A (Homo sapiens, UniProt O60885, Y390A)
Assay: competitive FP assay, BRD4 tandem construct Y390A
Type: binding
Conditions: absence of FKBP12
Report only the number, with the unit nM understood.

Some solved cases for reference:
compound	Kd / nM
Cc1sc2c(c1C)C(c1ccc(Cl)cc1)=NC(CC(=O)NCCOCCn1cc(COCC3CN(C(C)c4ccccn4)C(=O)C4CCCC3N4S(=O)(=O)c3cc(Cl)cc(Cl)c3)nn1)c1nnc(C)n1-2 (stereo not shown)	106
Cc1sc2c(c1C)C(c1ccc(Cl)cc1)=NC(CC(=O)N1CCC3(CC1)CC(n1cc(C4CN(Cc5ccccn5)C(=O)C5CCCC4N5S(=O)(=O)c4cc(Cl)cc(Cl)c4)nn1)C3)c1nnc(C)n1-2 (stereo not shown) [a13c]	860
Cc1sc2c(c1C)C(c1ccc(Cl)cc1)=NC(CC(=O)NCCOCCn1cc(COCC3CN(Cc4ccccn4)C(=O)C4CCCC3N4S(=O)(=O)c3cc(Cl)cc(Cl)c3)nn1)c1nnc(C)n1-2 (stereo not shown)	183

For the next question, use this compound.
Given the compound Cc1sc2c(c1C)C(c1ccc(C#CCNC(=O)COCCn3cc(C4CN(Cc5ccccn5)C(=O)C5CCCC4N5S(=O)(=O)c4cc(Cl)cc(Cl)c4)nn3)cc1)=NC(CC(=O)OC(C)(C)C)c1nnc(C)n1-2 (stereo not shown) , what is its reported Kd?
25

###

Kd values by entry
Target: BRD4^BD2 (Homo sapiens, UniProt O60885)
Construct: to the isolated BD1 and BD2 domains of BRD2, BRD3 and BRD4
Assay: competitive fluorescence polarization assay, BRD4 BD2 -/+ presenter protein
Format: binding
Conditions: presence of 15 µM FKBP12; read-out: Binding to BRD4^BD2 + FKBP12 Kd (converted)

compound	Kd
Cc1sc2c(c1C)C(c1ccc(Cl)cc1)=NC(CC(=O)NCCOCCn1cc(COC(C)C3CN(Cc4ccccn4)C(=O)C4CCCC3N4S(=O)(=O)c3cc(Cl)cc(Cl)c3)nn1)c1nnc(C)n1-2 (stereo not drawn) [a1f]	230 nM
C=CC1CN(Cc2ccccn2)C(=O)C2CCCC1N2S(=O)(=O)c1ccc(-c2cn(CCOCCNC(=O)CC3N=C(c4ccc(Cl)cc4)c4c(sc(C)c4C)-n4c(C)nnc43)nn2)c(Cl)c1 (stereo not drawn)	1100 nM

Now, please, on to the next compound.
// Kd lookup, key: Cc1sc2c(c1C)C(c1ccc(Cl)cc1)=NC(CC(=O)N1CCC(CN3CCC(Cn4cc(C5CN(Cc6ccccn6)C(=O)C6CCCC5N6S(=O)(=O)c5cc(Cl)cc(Cl)c5)nn4)CC3)CC1)c1nnc(C)n1-2 (stereo not drawn)
160 nM

###

Biological target: BRD4 43-463 Y390A (Homo sapiens, UniProt O60885, Y390A)
Assay: competitive FP assay, BRD4 tandem construct Y390A
Format: binding
Conditions: Binding to BRD4 43-463 Y390A + FKBP12 Kd, 15 µM FKBP12
experimental-readout: pKd
// returns pKd (minus log10 of molar concentration), number only

Reference set (3 entries):
molecule	numeric-readout
Cc1sc2c(c1C)C(c1ccc(Cl)cc1)=NC(CC(=O)NCCOCCn1cc(COCC3CN(Cc4ccccn4)C(=O)C4CCCC3N4S(=O)(=O)c3cc(Cl)cc(Cl)c3)nn1)c1nnc(C)n1-2 (stereo not shown)	7.74
Cc1sc2c(c1C)C(c1ccc(Cl)cc1)=NC(CC(=O)N1CCC3(CC1)CC(n1cc(C4CN(Cc5ccccn5)C(=O)C5CCCC4N5S(=O)(=O)c4cc(Cl)cc(Cl)c4)nn1)C3)c1nnc(C)n1-2 (stereo not shown) [a13c]	7.82
Cc1sc2c(c1C)C(c1ccc(Cl)cc1)=NC(CC(=O)NCCOCCn1cc(COCC3CN(C(C)c4ccccn4)C(=O)C4CCCC3N4S(=O)(=O)c3cc(Cl)cc(Cl)c3)nn1)c1nnc(C)n1-2 (stereo not shown)	8.05

Consider the record given below.
Given the entry Cc1sc2c(c1C)C(c1ccc(C#CCNC(=O)COCCn3cc(C4CN(Cc5ccccn5)C(=O)C5CCCC4N5S(=O)(=O)c4cc(Cl)cc(Cl)c4)nn3)cc1)=NC(CC(=O)OC(C)(C)C)c1nnc(C)n1-2 (stereo not shown) , report its measured pKd.
8.77
